This document collects MIC values reported for Escherichia coli ATCC 25922.
Respond with the bare value in µM.

Form field, MIC with Escherichia coli ATCC 25922, item `CC(C)C[C@H](NC(=O)[C@H](CCCCN)NC(=O)[C@H](CCCCN)NC(=O)[C@H](Cc1ccccc1)NC(=O)[C@H](Cc1ccccc1)NC(=O)[C@@H](N)CCCCN)C(=O)N[C@@H](CCCCN)C(=O)N[C@@H](CCCCN)C(=O)N[C@@H](C)C(=O)N[C@H](C(=O)N[C@@H](CCCCN)C(=O)N[C@@H](CCCCN)C(=O)NCC(=O)N[C@@H](Cc1ccccc1)C(=O)N[C@@H](CCCCN)C(=O)N[C@@H](CCCCN)C(=O)N[C@@H](Cc1ccccc1)C(=O)N[C@@H](C)C(=O)N[C@@H](CCCCN)C(=O)N[C@H](C(=O)O)C(C)C)C(C)C` : 5.21

---
Per the reported Escherichia coli ATCC 25922 data, `CC(C)C[C@H](NC(=O)[C@H](CCCCN)NC(=O)[C@@H](N)CCCCN)C(=O)NCC(=O)N[C@@H](CCC(=O)O)C(=O)N1CCC[C@H]1C(=O)N[C@@H](CO)C(=O)N[C@@H](CS)C(=O)N[C@@H](CC(N)=O)C(=O)N[C@@H](CCCCN)C(=O)N[C@@H](CC(C)C)C(=O)N[C@@H](CCCCN)C(N)=O` has MIC of 22.3

----------
Test system: Klebsiella pneumoniae ATCC 700603
experimental-endpoint: MIC

Sample answers from the record:
Result for `CC(C)[C@H](N)C(=O)N[C@@H](CCCN=C(N)N)C(=O)N[C@@H](CCCN=C(N)N)C(=O)N[C@@H](Cc1c[nH]c2ccccc12)C(=O)N[C@@H](Cc1c[nH]c2ccccc12)C(=O)N[C@@H](Cc1c[nH]c2ccccc12)C(=O)N[C@@H](CCCN=C(N)N)C(=O)N[C@@H](CCCN=C(N)N)C(=O)N[C@H](C(N)=O)C(C)C` , tested on Klebsiella pneumoniae ATCC 700603, MIC: 64 µM

MIC on Klebsiella pneumoniae ATCC 700603 for `CC(C)C[C@H](NC(=O)[C@H](CC(C)C)NC(=O)[C@@H](NC(=O)[C@H](CCCCN)NC(=O)[C@H](C)NC(=O)[C@H](CCCN=C(N)N)NC(=O)[C@H](CCCCN)NC(=O)[C@H](C)NC(=O)[C@H](CC(C)C)NC(=O)CN)[C@@H](C)O)C(N)=O` is > 512 µM

Summary line: `CC[C@H](C)[C@H](N)C(=O)N[C@@H](Cc1c[nH]c2ccccc12)C(=O)N[C@@H](CCCN=C(N)N)C(=O)N[C@@H](Cc1c[nH]c2ccccc12)C(=O)N[C@@H](Cc1c[nH]c2ccccc12)C(=O)N[C@@H](Cc1c[nH]c2ccccc12)C(=O)N[C@@H](CCCN=C(N)N)C(=O)N[C@@H](Cc1c[nH]c2ccccc12)C(=O)N[C@H](C(N)=O)[C@@H](C)CC` , Klebsiella pneumoniae ATCC 700603, reported MIC = 8 µM

More entries:
// returns MIC for `CC[C@H](C)[C@H](NC(=O)[C@H](CC(C)C)NC(=O)[C@H](C)NC(=O)[C@H](Cc1ccccc1)NC(=O)[C@H](C)N)C(=O)N[C@@H](C)C(=O)NCC(=O)N[C@@H](C)C(=O)N[C@@H](CC(C)C)C(=O)N[C@@H](Cc1ccc(O)cc1)C(=O)N[C@@H](CCCN=C(N)N)C(=O)N[C@H](C(=O)N[C@@H](Cc1ccccc1)C(=O)N[C@@H](Cc1cnc[nH]1)C(=O)N[C@@H](CCCN=C(N)N)C(=O)N[C@@H](CCCN=C(N)N)C(=O)O)[C@@H](C)CC` with Klebsiella pneumoniae ATCC 700603; value = > 256 µM

----------
Tested on: Pseudomonas aeruginosa
method-notes: ≥ marks a high value that may be exact or a test limit, other limits are often not marked, values filed in µg/mL are converted to µM
# key: entry, value: MIC
Please state the figure in µM; there is no need to write the unit.

# MIC of CC(=O)N[C@@H](CCCN=C(N)N)C(=O)N[C@@H](Cc1c[nH]c2ccccc12)C(=O)N[C@H](C(=O)N[C@@H](Cc1c[nH]c2ccccc12)C(=O)N[C@@H](CCCN=C(N)N)C(=O)NCC(=O)N[C@@H](CO)C(=O)NCC(=O)N[C@@H](CCCN=C(N)N)C(=O)N[C@@H](Cc1c[nH]c2ccccc12)C(=O)N[C@H](C(=O)N[C@@H](Cc1c[nH]c2ccccc12)C(=O)N[C@@H](CCCN=C(N)N)C(N)=O)[C@@H](C)O)[C@@H](C)O [RWTWRGSGRWTWR] = 69.8

MIC reading for CC(C)C[C@H](NC(=O)[C@@H](NC(=O)[C@H](CCCCN)NC(=O)[C@H](CO)NC(=O)[C@H](C)NC(=O)[C@@H](NC(=O)[C@H](CCCCN)NC(=O)[C@H](Cc1ccccc1)NC(=O)[C@H](CC(C)C)NC(=O)[C@H](C)NC(=O)CNC(=O)[C@H](CC(C)C)NC(=O)[C@@H](N)Cc1c[nH]c2ccccc12)C(C)C)C(C)C)C(=O)O [WLGALFKVASKVL] : 69.8

MIC in this record for CC[C@H](C)[C@H](NC(=O)[C@H](CC(C)C)NC(=O)[C@H](CCCCN)NC(=O)CNC(=O)[C@H](CC(C)C)NC(=O)[C@@H](NC(=O)[C@H](CCCCN)NC(=O)[C@H](CCCCN)NC(=O)[C@H](Cc1c[nH]c2ccccc12)NC(=O)[C@H](CCSC)NC(=O)CN)[C@@H](C)CC)C(=O)N[C@@H](CCCN=C(N)N)C(N)=O [GMWKKILGKLIR] : 13.1

// recorded MIC for CC[C@H](C)[C@H](NC(=O)[C@H](CCC(N)=O)NC(=O)[C@H](CCCCN)NC(=O)[C@H](CC(C)C)NC(=O)[C@H](CC(C)C)NC(=O)[C@H](CO)NC(=O)[C@H](CCSC)NC(=O)[C@H](Cc1c[nH]c2ccccc12)NC(=O)[C@H](CCCCN)NC(=O)CN)C(=O)N[C@@H](CC(C)C)C(=O)N[C@@H](CCCCN)C(N)=O [GKWMSLLKQILK] : 50

Record summary for CC[C@H](C)[C@@H]1NC(=O)CNC(=O)[C@H](CCCN=C(N)N)NC(=O)CNC(=O)[C@@H]2CSSC[C@H](NC1=O)C(=O)N[C@@H](Cc1ccc(O)cc1)C(=O)N[C@@H](CCCN=C(N)N)C(=O)N[C@@H](CCCN=C(N)N)C(=O)N[C@H](C(=O)N[C@@H](CCCN=C(N)N)C(=O)O)CSSC[C@H](NC(=O)[C@H](Cc1c[nH]c3ccccc13)NC(=O)[C@@H](N)CCCCN)C(=O)N[C@@H](Cc1ccccc1)C(=O)N[C@@H](CCCN=C(N)N)C(=O)N[C@@H](C(C)C)C(=O)N2 [KWCFRVCGRGICYRRCR] : reported MIC = 7.4

----------
Measured MIC (Escherichia coli ATCC 25922)

`CC[C@H](C)[C@H](NC(=O)[C@H](CC(C)C)NC(=O)CNC(=O)CNC(=O)[C@H](CC(C)C)NC(=O)[C@@H](N)Cc1ccccc1)C(=O)N[C@@H](CCCCN)C(=O)N[C@@H](CCCCN)C(=O)N[C@@H](Cc1c[nH]c2ccccc12)C(=O)N1CCC[C@H]1C(=O)N[C@@H](Cc1c[nH]c2ccccc12)C(=O)N[C@@H](Cc1c[nH]c2ccccc12)C(=O)N1CCC[C@H]1C(=O)N[C@@H](Cc1c[nH]c2ccccc12)C(=O)N[C@@H](CCCN=C(N)N)C(=O)N[C@@H](CCCN=C(N)N)C(N)=O` on Escherichia coli ATCC 25922 gives MIC = 3.67 µM

Log: Escherichia coli ATCC 25922, compound `CC[C@H](C)[C@H](NC(=O)[C@H](CO)NC(=O)[C@H](CC(C)C)NC(=O)[C@@H](N)Cc1ccccc1)C(=O)N[C@H](C(=O)N[C@@H](C)C(=O)N[C@@H](CCCCN)C(=O)N[C@H](C(=O)N[C@@H](CC(C)C)C(=O)NCC(=O)N[C@@H](CO)C(=O)N[C@@H](CC(C)C)C(=O)N[C@@H](Cc1ccccc1)C(N)=O)C(C)C)[C@@H](C)CC` , MIC = > 160 µM

Given the compound `CC(C)C[C@H](NC(=O)[C@H](CC(C)C)NC(=O)[C@H](CCCCN)NC(=O)[C@H](CCCCN)NC(=O)[C@H](CC(C)C)NC(=O)[C@H](CC(C)C)NC(=O)[C@H](CCCCN)NC(=O)[C@H](CCCCN)NC(=O)[C@@H](N)CC(C)C)C(=O)N[C@@H](CCCCN)C(=O)N[C@@H](Cc1c[nH]c2ccccc12)C(N)=O` and test system Escherichia coli ATCC 25922, the measured MIC is 2.84 µM

Field MIC (system: Escherichia coli ATCC 25922) for entry `CC(C)C[C@H](NC(=O)[C@H](Cc1ccc(O)cc1)NC(=O)[C@H](CCCCN)NC(=O)[C@H](CC(C)C)NC(=O)[C@H](CC(C)C)NC(=O)[C@H](CCCCN)NC(=O)[C@H](CCCCN)NC(=O)[C@H](Cc1ccccc1)NC(=O)[C@H](CC(C)C)NC(=O)[C@H](CCCN=C(N)N)NC(=O)[C@@H](N)CCCCN)C(=O)N[C@@H](CCCN=C(N)N)C(=O)N[C@@H](CCCCN)C(=O)N[C@@H](Cc1ccccc1)C(=O)O` = 0.531 µM

// MIC (Escherichia coli ATCC 25922) for `CC[C@H](C)[C@H](N)C(=O)N[C@@H](CCCN=C(N)N)C(=O)N[C@H](C(=O)N[C@@H](CCCCN)C(=O)N[C@H](C(=O)N[C@@H](CCCN=C(N)N)C(=O)N[C@H](C(=O)N[C@@H](CCCCN)C(=O)N[C@H](C(=O)N[C@@H](CCCN=C(N)N)C(=O)N[C@H](C(=O)N[C@@H](CCCCN)C(N)=O)C(C)C)[C@@H](C)CC)C(C)C)[C@@H](C)CC)C(C)C` = 10.3 µM
